In this section, each of the sequences is paired with its reported protein stability index.
# Experimental Protocol: protein stability index of a GFP-peptide fusion (yeast GPS) (PSI 1-4); higher = more stable; sorted into four equal gates, so the index is relative within each strain
# Measurement Setup: pdr5∆
Could you keep your reply to the number by itself?

Worked set:
1. NFTSPTAVVNNAAPANV [SWI1] :: 2.77
2. FEQKGSQTTTNDSKEES [YLR335W/NUP2] :: 3.13
3. TTYTYQQPNPLQDLISV [ROX3] :: 1.81
4. GNNKDLKNTMQYLTNFS [RPB4] :: 3.02
5. LNAKYQSLGLDDLQKFN [ISW2] :: 3
6. KNGLYQEAFKIYQHLAS [SRP72] :: 2.14
7. RENVFFQSQQRRKDTSM [RPB9] :: 3.4
8. KWDNQSASRAKNMPVIY [RGR1] :: 2.41

Then this sequence:
protein stability index lookup needed for LTLQEDYIKDEQRHLKR [RPT3] , thanks.
3.18

----------
# Experimental Protocol: protein stability index of a GFP-peptide fusion (yeast GPS) (PSI 1-4); higher = more stable; sorted into four equal gates, so the index is relative within each strain
# Measurement Setup: san1∆
In this section, each of the sequences is paired with its reported protein stability index.
Could you keep your reply to the number by itself?

Worked set:
1. KSRPDRPKPVSPPCYII [SNF5] :: 2.98
2. TQEFSKNYTTETDNEMN [SIR3] :: 3.64
3. LDPLEMEGNAQPVNFNR [RPO31] :: 2.93
4. TVKTNDELMVIYISNLV [RPN8] :: 1.51

Then this sequence:
protein stability index lookup needed for PSLNPIPHFIDNNSSLN [PRP8] , thanks.
2.78

----------
# Experimental Protocol: protein stability index of a GFP-peptide fusion (yeast GPS) (PSI 1-4); higher = more stable; sorted into four equal gates, so the index is relative within each strain
# Measurement Setup: ubr1∆
Readout Type: protein stability index
Could you keep your reply to the number by itself?

1. DLKRFVDESLLSTLPAG [QCR2] :: 3

protein stability index lookup needed for LSAEYLVILKPDLNIDR [SIN4] , thanks.
2.94

protein stability index lookup needed for LDGDRADKRGVLTGGYL [SMC3] , thanks.
3.07

----------
# Experimental Protocol: protein stability index of a GFP-peptide fusion (yeast GPS) (PSI 1-4); higher = more stable; sorted into four equal gates, so the index is relative within each strain
# Measurement Setup: san1∆
Readout Type: protein stability index
Could you keep your reply to the number by itself?

1. LVAIFGGQGNTDDYFEE [FAS1] :: 3.26
2. QLKAEEKKILNQFLKIK [SMC1] :: 2.84
3. ILTEHLGYPPISLVDDI [MTW1] :: 2.22
4. SQNDGFVIIRGSQILSG [RPO31] :: 2.86
5. THLHEALDIVCSDFVKI [NUT1] :: 2.15

protein stability index lookup needed for VTDNKTPEMNVTNNVEE [TAF14] , thanks.
3.35

protein stability index lookup needed for FIMVKGCIPGNRKRIVT [RPL3] , thanks.
1.57

----------
# Experimental Protocol: protein stability index of a GFP-peptide fusion (yeast GPS) (PSI 1-4); higher = more stable; sorted into four equal gates, so the index is relative within each strain
# Measurement Setup: ubr1∆
Outcome: 1 (yes) for protein stability index of at least 3; 0 (no) for anything lower.

1. GVHDGEVEPALLLLQDY [RPN1] :: 0 (no)
2. TDSRTGQSTILVGSEIY [CDC53] :: 0 (no)
3. SRNKALELNLSVLHSWV [YJL039C/NUP192] :: 0 (no)
4. IIGPNGSGKSNMMDAIS [SMC1] :: 1 (yes)
5. DRFKYRSVDRAGRKFKS [POP4] :: 1 (yes)
6. QNPLNKSQNTALPSTHK [SIR4] :: 0 (no)
7. IRQDVNLGRAVFWEIQS [PRP8] :: 0 (no)
8. RDKAGRLAEVNLKDLNN [RPO21] :: 0 (no)

Has YKNHELLKLERKKTEAV [SNF2] a recorded protein stability index greater than or equal to 3?
1 (yes)

Has IVVQLNGRLNKCGVISP [RPS22A] a recorded protein stability index greater than or equal to 3?
1 (yes)

Has ERDTFSDFTFPEYYSTA [DIS3] a recorded protein stability index greater than or equal to 3?
0 (no)

Has YEKNFEATLESKLKEEE [ESC2] a recorded protein stability index greater than or equal to 3?
1 (yes)

Has KDEEETEYFENKQSVSN [DSN1] a recorded protein stability index greater than or equal to 3?
1 (yes)

Has EGIKETQAKRIFLQQFL [SWI1] a recorded protein stability index greater than or equal to 3?
0 (no)

----------
# Experimental Protocol: protein stability index of a GFP-peptide fusion (yeast GPS) (PSI 1-4); higher = more stable; sorted into four equal gates, so the index is relative within each strain
# Measurement Setup: san1∆
Readout Type: protein stability index
Could you keep your reply to the number by itself?

Worked set:
1. LFQTIEKLINNSDDCMM [ECM29] :: 3.09
2. DTVNSALENDVATNIVN [YML103C/NUP188] :: 3.09

Then this sequence:
protein stability index lookup needed for DDPTQLVSRGGCGNTQP [RPO21] , thanks.
2.97

----------
# Experimental Protocol: protein stability index of a GFP-peptide fusion (yeast GPS) (PSI 1-4); higher = more stable; sorted into four equal gates, so the index is relative within each strain
# Measurement Setup: pdr5∆
Readout Type: protein stability index
Could you keep your reply to the number by itself?

Worked set:
1. IETVDDKLKDIVGQTSR [ITC1] :: 3.01
2. TGKERSKKRKLNSLTNL [SNM1] :: 3.04
3. PGFQLPNRITLTDHRKE [SRB8] :: 2.98
4. KQNSSSDINQNDDSSSM [YDL088C/ASM4] :: 2.94
5. AKNEDDPAHSLNYTVIN [AAR2] :: 3.05

protein stability index lookup needed for LESEIASSSAKLIEKKS [SMC2] , thanks.
3.03

protein stability index lookup needed for ARERKTATYNDNMSEEQ [SNF2] , thanks.
2.91

protein stability index lookup needed for LTQLLSMMSDGIEHFDI [RPO31] , thanks.
3.05

----------
# Experimental Protocol: protein stability index of a GFP-peptide fusion (yeast GPS) (PSI 1-4); higher = more stable; sorted into four equal gates, so the index is relative within each strain
# Measurement Setup: ubr1∆
In this section, each of the sequences is paired with its reported protein stability index.
Could you keep your reply to the number by itself?

Worked set:
1) NVAKNMKTPSLTVYLEP [RPO21] :: 3
2) NFTSPTAVVNNAAPANV [SWI1] :: 2.91
3) KTAKEVAGAIRAGIIIA [RPS2] :: 3.07
4) GSEEKAFVPKKRKTNII [SRP54] :: 3.02
5) APSVPEFIYLTKVLQFA [SNF2] :: 2.91
6) QILENYNALFQQNIKFR [YJL039C/NUP192] :: 3.04
7) AGTEANAVSFDTTFSDF [SRB4] :: 3.02
8) IETVDDKLKDIVGQTSR [ITC1] :: 3.03

Then this sequence:
protein stability index lookup needed for YSQSPPRSPGRSPTRRL [SMC4] , thanks.
3.04

----------
# Experimental Protocol: protein stability index of a GFP-peptide fusion (yeast GPS) (PSI 1-4); higher = more stable; sorted into four equal gates, so the index is relative within each strain
# Measurement Setup: pdr5∆
In this section, each of the sequences is paired with its reported protein stability index.
Could you keep your reply to the number by itself?

1. CWPKDSRMRLIRQDVNL [PRP8] :: 2.68

protein stability index lookup needed for STAAAPIAAPKKPRKPR [PGD1] , thanks.
3.11

protein stability index lookup needed for WCQEAFPSSETTSLNPI [BRR2] , thanks.
3.33

protein stability index lookup needed for AQLDGRIGVLQARMMQQ [NSL1] , thanks.
2.46

----------
# Experimental Protocol: protein stability index of a GFP-peptide fusion (yeast GPS) (PSI 1-4); higher = more stable; sorted into four equal gates, so the index is relative within each strain
# Measurement Setup: ubr1∆
Readout Type: protein stability index
Could you keep your reply to the number by itself?

1) TVVGNASFGKNLQIRQL [DSN1] :: 2.97
2) NNNNNNNNNSTRPQMPS [GRR1] :: 3.03

protein stability index lookup needed for KLHVNWNLNATKPNVLN [SIN4] , thanks.
2.93

protein stability index lookup needed for KQTADWLAEKFQKETNM [PRP28] , thanks.
3.16

protein stability index lookup needed for PSMMAPLRDNGLLDESP [YML031W/NDC1] , thanks.
3.35

----------
In this section, each of the sequences is paired with its reported protein stability index.
# Experimental Protocol: protein stability index of a GFP-peptide fusion (yeast GPS) (PSI 1-4); higher = more stable; sorted into four equal gates, so the index is relative within each strain
# Measurement Setup: san1∆
Could you keep your reply to the number by itself?

Worked set:
1. HLRYQPDGVVVHRDDPA [SNF6] :: 2.94
2. VQVRSVMDPITSKRKAE [DIS3] :: 2.92

protein stability index lookup needed for HAGTAIGIMASDGIVLA [PRE9] , thanks.
3.09
